Target: CK1α (Homo sapiens, UniProt P48729+Q96SW2)
Construct: CSNK1A1-HiBit KI HEK293(LgBit) Cells; host or cells: HEK293(LgBit) knock-in cells
Sequence (P48729 whole entry): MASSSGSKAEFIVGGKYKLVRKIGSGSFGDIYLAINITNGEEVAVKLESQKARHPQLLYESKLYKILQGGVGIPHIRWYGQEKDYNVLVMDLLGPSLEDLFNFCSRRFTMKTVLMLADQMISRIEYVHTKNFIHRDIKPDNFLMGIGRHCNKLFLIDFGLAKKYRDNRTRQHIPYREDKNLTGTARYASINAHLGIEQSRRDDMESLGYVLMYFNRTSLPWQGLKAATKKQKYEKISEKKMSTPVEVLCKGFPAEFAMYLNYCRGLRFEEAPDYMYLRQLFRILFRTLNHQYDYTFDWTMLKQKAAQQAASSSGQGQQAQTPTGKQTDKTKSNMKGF
Sequence (Q96SW2 whole entry): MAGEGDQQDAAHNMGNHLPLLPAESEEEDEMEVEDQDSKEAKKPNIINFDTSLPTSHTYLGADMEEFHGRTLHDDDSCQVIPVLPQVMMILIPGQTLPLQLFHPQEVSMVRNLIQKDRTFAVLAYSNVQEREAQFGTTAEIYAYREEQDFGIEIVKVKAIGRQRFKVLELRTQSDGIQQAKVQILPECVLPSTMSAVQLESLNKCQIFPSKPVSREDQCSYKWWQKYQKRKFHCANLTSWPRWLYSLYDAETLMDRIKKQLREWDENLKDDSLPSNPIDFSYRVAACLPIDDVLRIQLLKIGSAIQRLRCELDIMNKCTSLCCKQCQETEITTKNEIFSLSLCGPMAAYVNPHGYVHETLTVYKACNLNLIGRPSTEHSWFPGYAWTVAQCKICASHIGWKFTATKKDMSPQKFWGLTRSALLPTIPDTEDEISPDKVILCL
Sequence (Q16531 whole entry partner): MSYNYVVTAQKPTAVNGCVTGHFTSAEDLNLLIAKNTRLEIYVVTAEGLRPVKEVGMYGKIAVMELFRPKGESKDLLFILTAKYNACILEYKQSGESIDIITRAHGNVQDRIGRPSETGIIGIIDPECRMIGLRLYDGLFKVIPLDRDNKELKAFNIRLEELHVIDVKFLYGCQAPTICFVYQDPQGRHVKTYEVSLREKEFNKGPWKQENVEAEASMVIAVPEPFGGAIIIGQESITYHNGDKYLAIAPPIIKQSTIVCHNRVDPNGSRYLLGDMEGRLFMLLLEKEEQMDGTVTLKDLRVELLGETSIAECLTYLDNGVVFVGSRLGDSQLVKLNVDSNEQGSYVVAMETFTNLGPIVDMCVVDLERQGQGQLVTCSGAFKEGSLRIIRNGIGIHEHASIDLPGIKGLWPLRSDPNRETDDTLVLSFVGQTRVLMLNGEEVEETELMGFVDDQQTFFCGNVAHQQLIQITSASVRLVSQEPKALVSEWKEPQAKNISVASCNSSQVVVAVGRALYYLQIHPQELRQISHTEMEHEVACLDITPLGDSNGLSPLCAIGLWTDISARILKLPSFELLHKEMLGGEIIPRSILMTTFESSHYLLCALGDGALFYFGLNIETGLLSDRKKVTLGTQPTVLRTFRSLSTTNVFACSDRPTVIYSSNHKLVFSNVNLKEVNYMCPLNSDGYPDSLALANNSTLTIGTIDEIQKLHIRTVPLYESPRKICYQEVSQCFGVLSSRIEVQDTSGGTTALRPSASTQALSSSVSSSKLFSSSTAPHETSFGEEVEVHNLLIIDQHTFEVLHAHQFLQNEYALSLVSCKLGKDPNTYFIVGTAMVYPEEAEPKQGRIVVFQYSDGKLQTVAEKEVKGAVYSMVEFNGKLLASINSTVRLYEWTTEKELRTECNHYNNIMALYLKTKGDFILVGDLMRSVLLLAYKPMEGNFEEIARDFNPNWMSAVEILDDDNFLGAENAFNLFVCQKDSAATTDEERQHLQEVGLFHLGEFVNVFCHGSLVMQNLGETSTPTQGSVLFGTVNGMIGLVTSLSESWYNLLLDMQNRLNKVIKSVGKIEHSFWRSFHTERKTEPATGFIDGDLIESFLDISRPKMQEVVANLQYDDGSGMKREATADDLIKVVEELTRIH
Assay: HiBiT degradation assay, CK1α, Procedure A
Format: cell-based
Conditions: six hours incubation
measured_property: DC50

| molecule | target_or_test_system | result |
| --- | --- | --- |
| Cn1cnc(-c2ccc3c(c2)CN(C2CCC(=O)NC2=O)C3=O)c1-c1ccc(Cl)cc1Cl (stereo not shown) | CK1α (Homo sapiens, UniProt P48729+Q96SW2) | < 25 nM |

Return reported DC50. Input molecule: Cn1ncc(-c2ccc3c(c2)CN(C2CCC(=O)NC2=O)C3=O)c1-c1cc(Cl)ccc1F (stereo not shown)
≥ 25 nM

Return reported DC50. Input molecule: COc1ccc(-c2c(-c3ccc4c(c3)CN(C3CCC(=O)NC3=O)C4=O)cnn2C)cc1OCc1ccccc1 (stereo not shown)
< 25 nM

Return reported DC50. Input molecule: Cn1ncc(-c2ccc3c(c2)CN(C2CCC(=O)NC2=O)C3=O)c1-c1ccc(OCc2ccccc2)cc1 (stereo not shown)
< 25 nM

Return reported DC50. Input molecule: O=C1CCC(N2Cc3cc(-c4cnn5c4-c4ccccc4C5)ccc3C2=O)C(=O)N1 (stereo not shown)
< 25 nM

Return reported DC50. Input molecule: Cn1ncc(-c2ccc3c(c2)CN(C2CCC(=O)NC2=O)C3=O)c1-c1ccc(Cl)c(Cl)c1 (stereo not shown)
≥ 25 nM

Return reported DC50. Input molecule: Cn1cnc(-c2ccc3c(c2)CN(C2CCC(=O)NC2=O)C3=O)c1-c1ccccc1 (stereo not shown)
< 25 nM

----------
Biological target: CK1α (Homo sapiens, UniProt P48729+Q96SW2)
Construct: CSNK1A1-HiBit KI HEK293(LgBit) Cells; host or cells: HEK293(LgBit) knock-in cells
Experiment: HiBiT degradation assay, CK1α, Procedure A
Type: cell-based
Details: six hours incubation
DC50 values for the compounds below.

Take a look at these entries with their results.
| compound | target_or_test_system | measured_property | result |
| --- | --- | --- | --- |
| COc1ccc(-c2c(-c3ccc4c(c3)CN(C3CCC(=O)NC3=O)C4=O)cnn2C)cc1F (stereo not shown) | CK1α (Homo sapiens, UniProt P48729+Q96SW2) | DC50 | < 25 nM |
| Cc1cc(Cl)ccc1-c1c(-c2ccc3c(c2)CN(C2CCC(=O)NC2=O)C3=O)ncn1C (stereo not shown) | CK1α (Homo sapiens, UniProt P48729+Q96SW2) | DC50 | < 25 nM |
| CN(C)Cc1ccc(-c2c(-c3ccc4c(c3)CN(C3CCC(=O)NC3=O)C4=O)cnn2C)cc1 (stereo not shown) | CK1α (Homo sapiens, UniProt P48729+Q96SW2) | DC50 | < 25 nM |
| Cn1ncc(-c2ccc3c(c2)CN(C2CCC(=O)NC2=O)C3=O)c1-c1ccc(F)c(C#N)c1 (stereo not shown) | CK1α (Homo sapiens, UniProt P48729+Q96SW2) | DC50 | ≥ 25 nM |
| Cn1cnc(-c2ccc3c(c2)CN(C2CCC(=O)NC2=O)C3=O)c1-c1ccc(S(=O)(=O)N2CCCC2)cc1 (stereo not shown) | CK1α (Homo sapiens, UniProt P48729+Q96SW2) | DC50 | < 25 nM |
| Cn1ncc(-c2ccc3c(c2)CN(C2CCC(=O)NC2=O)C3=O)c1-c1ccc(-c2cccnc2)cc1 (stereo not shown) | CK1α (Homo sapiens, UniProt P48729+Q96SW2) | DC50 | < 25 nM |

Return reported DC50. Input compound: CC(C)c1ccccc1-c1c(-c2ccc3c(c2)CN(C2CCC(=O)NC2=O)C3=O)ncn1C (stereo not shown)
< 25 nM

----------
Target: GSPT1 (Homo sapiens, UniProt P15170+Q96SW2)
Sequence (P15170 whole entry): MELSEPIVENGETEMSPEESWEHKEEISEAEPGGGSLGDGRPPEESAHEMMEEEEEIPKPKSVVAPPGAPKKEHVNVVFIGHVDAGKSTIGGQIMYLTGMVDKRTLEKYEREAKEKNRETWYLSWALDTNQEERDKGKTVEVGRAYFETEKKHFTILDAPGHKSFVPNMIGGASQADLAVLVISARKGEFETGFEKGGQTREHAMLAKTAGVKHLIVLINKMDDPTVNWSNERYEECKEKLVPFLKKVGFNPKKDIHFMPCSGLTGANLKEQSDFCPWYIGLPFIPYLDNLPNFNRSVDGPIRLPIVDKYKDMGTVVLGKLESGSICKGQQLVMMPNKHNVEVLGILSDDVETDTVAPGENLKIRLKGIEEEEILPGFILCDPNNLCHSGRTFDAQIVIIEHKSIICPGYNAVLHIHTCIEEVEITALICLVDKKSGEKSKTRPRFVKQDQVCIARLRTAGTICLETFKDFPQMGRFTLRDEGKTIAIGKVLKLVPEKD
Sequence (Q96SW2 whole entry): as the sequence (Q96SW2 whole entry) above
Sequence (Q16531 whole entry partner): as the sequence (Q16531 whole entry partner) above
Test: HiBiT degradation assay, GSPT1, Procedure A
Format: cell-based
Design: HiBit-GSPT1 KI HEK293(LgBit) Cells; host or cells: HEK293(LgBit) knock-in cells
Details: six hours incubation
measured_property: DC50

Take a look at these entries with their results.
| compound | DC50 |
| --- | --- |
| Cn1cnc(-c2ccc3c(c2)CN(C2CCC(=O)NC2=O)C3=O)c1-c1ccc(OCc2ccccc2)cc1 (stereo not shown) | ≥ 25 nM |
| Cn1ncc(-c2ccc3c(c2)CN(C2CCC(=O)NC2=O)C3=O)c1-c1ccc(N)cc1 (stereo not shown) | ≥ 25 nM |
| Cn1cnc(-c2ccc3c(c2)CN(C2CCC(=O)NC2=O)C3=O)c1-c1ccc(N2CCCC2)cc1 (stereo not shown) | < 25 nM |

Return reported DC50. Input compound: Cc1ccc(-c2c(-c3ccc4c(c3)CN(C3CCC(=O)NC3=O)C4=O)cnn2C)c(C)c1 (stereo not shown)
≥ 25 nM

Return reported DC50. Input compound: Cn1cnc(-c2ccc3c(c2)CN(C2CCC(=O)NC2=O)C3=O)c1-c1ccc(OCc2ccccc2)c(Cl)c1 (stereo not shown)
< 25 nM

Return reported DC50. Input compound: Cc1ccsc1-c1c(-c2ccc3c(c2)CN(C2CCC(=O)NC2=O)C3=O)ncn1C (stereo not shown)
≥ 25 nM

Return reported DC50. Input compound: Cn1cnc(-c2ccc3c(c2)CN(C2CCC(=O)NC2=O)C3=O)c1-c1cc(C#N)ccc1F (stereo not shown)
≥ 25 nM

Return reported DC50. Input compound: CC(C)Cc1ccc(-c2c(-c3ccc4c(c3)CN(C3CCC(=O)NC3=O)C4=O)cnn2C)cc1 (stereo not shown)
≥ 25 nM

Return reported DC50. Input compound: Cc1nc(-c2ccc3c(c2)CN(C2CCC(=O)NC2=O)C3=O)c(-c2ccccc2)o1 (stereo not shown)
≥ 25 nM

Return reported DC50. Input compound: Cn1ncc(-c2ccc3c(c2)CN(C2CCC(=O)NC2=O)C3=O)c1-c1ccc(Cl)cc1 (stereo not shown) [Example 216]
≥ 25 nM

Return reported DC50. Input compound: COc1cc(-c2c(-c3ccc4c(c3)CN(C3CCC(=O)NC3=O)C4=O)cnn2C)ccc1C (stereo not shown)
≥ 25 nM

----------
Target: CK1α (Homo sapiens, UniProt P48729+Q96SW2)
Construct: CSNK1A1-HiBit KI HEK293(LgBit) Cells; host or cells: HEK293(LgBit) knock-in cells
Assay: HiBiT degradation assay, CK1α, Procedure A
Format: cell-based
Conditions: six hours
measured_property: DC50

| molecule | target_or_test_system | result |
| --- | --- | --- |
| Cn1cnc(-c2ccc3c(c2)CN(C2CCC(=O)NC2=O)C3=O)c1-c1ccc2nccnc2c1 (centres unmarked) | CK1α (Homo sapiens, UniProt P48729+Q96SW2) | ≥ 25 nM |
| Cn1cnc(-c2ccc3c(c2)CN(C2CCC(=O)NC2=O)C3=O)c1-c1cncnc1 (centres unmarked) | CK1α (Homo sapiens, UniProt P48729+Q96SW2) | ≥ 25 nM |

Return reported DC50. Input molecule: Cn1cc(-c2ccc3c(c2)CN(C2CCC(=O)NC2=O)C3=O)nc1-c1cccc(C(N)=O)c1 (centres unmarked)
≥ 25 nM

Return reported DC50. Input molecule: Cn1ncc(-c2ccc3c(c2)CN(C2CCC(=O)NC2=O)C3=O)c1-c1ccc2cccnc2c1 (centres unmarked)
< 25 nM

Return reported DC50. Input molecule: Cn1ncc(-c2ccc3c(c2)CN(C2CCC(=O)NC2=O)C3=O)c1-c1cccc(CCCCCCc2ccccc2)c1 (centres unmarked)
≥ 25 nM

Return reported DC50. Input molecule: Cn1nc(-c2ccc3c(c2)CN(C2CCC(=O)NC2=O)C3=O)nc1-c1ccc(Cl)cc1 (centres unmarked)
< 25 nM

Return reported DC50. Input molecule: O=C1CCC(N2Cc3cc(-c4nc(C5CC5)oc4-c4ccccc4)ccc3C2=O)C(=O)N1 (centres unmarked)
< 25 nM

Return reported DC50. Input molecule: Cn1ncc(-c2ccc3c(c2)CN(C2CCC(=O)NC2=O)C3=O)c1-c1cccc(N2CCNCC2)c1 (centres unmarked)
≥ 25 nM

----------
Biological target: GSPT1 (Homo sapiens, UniProt P15170+Q96SW2)
Test: HiBiT degradation assay, GSPT1, Procedure A
Format: cell-based
Design: HiBit-GSPT1 KI HEK293(LgBit) Cells; host or cells: HEK293(LgBit) knock-in cells
Conditions: six hours incubation
Procedure: Compounds were spotted onto Cornin 384-Well, Cell Culture-Treated, Flat-Bottom, Low Flange Microplate (Fisher Scientific, Catalog #07-201-013) using a Tecan D300e digital dispenser. […] Cells were dissociated from tissue 182 cm^2 Tissue Culture Flask (CellTreat Catalog #229351) by washing the cells with PBS (Fisher Scientific Catalog #BP3994) followed by dissociation with Trypsin-EDTA (0.25%) (Thermo Scientific Catalog #25200056). […] Cell density was determined using a Denovix CellDrop BF cell counter. […]
measured_property: DC50

Take a look at these entries with their results.
| compound | DC50 |
| --- | --- |
| Cn1nc(-c2ccccc2)cc1-c1ccc2c(c1)CN(C1CCC(=O)NC1=O)C2=O (centres unmarked) [Example 35] | ≥ 25 nM |
| Cn1cnc(-c2ccc3c(c2)CN(C2CCC(=O)NC2=O)C3=O)c1-c1cccc(N2CCCCC2)c1 (centres unmarked) [Example 296] | ≥ 25 nM |

Return reported DC50. Input compound: Cn1ncc(-c2ccc3c(c2)CN(C2CCC(=O)NC2=O)C3=O)c1-c1ccccc1N (centres unmarked) [Example 127]
≥ 25 nM

Return reported DC50. Input compound: Cn1cnc(-c2ccc3c(c2)CN(C2CCC(=O)NC2=O)C3=O)c1-c1ccc(COc2ccccc2)cc1 (centres unmarked) [Example 311]
< 25 nM

Return reported DC50. Input compound: CNC(=O)c1cccc(-c2c(-c3ccc4c(c3)CN(C3CCC(=O)NC3=O)C4=O)ncn2C)c1 (centres unmarked) [Example 268]
≥ 25 nM

Return reported DC50. Input compound: CN1N=CC(c2ccc3c(c2)CN(C2CCC(=O)NC2=O)C3=O)C1c1cnc(C#N)nc1 (centres unmarked) [Example 374]
≥ 25 nM

Return reported DC50. Input compound: Cc1ccc(-c2c(-c3ccc4c(c3)CN(C3CCC(=O)NC3=O)C4=O)cnn2C)c(F)c1 (centres unmarked) [Example 94]
≥ 25 nM

Return reported DC50. Input compound: COc1ccc(F)cc1-c1c(-c2ccc3c(c2)CN(C2CCC(=O)NC2=O)C3=O)ncn1C (centres unmarked) [Example 191]
< 25 nM
